Measured IC50, listed per entry for reference.
target: human URAT1 (Homo sapiens (Human)); test: Inhibition of 14C-uric acid absorption in URAT1 cell model (HEK-293T cells transfected with human URAT1); conditions: HEK-293T cells transfected with human URAT1, 14C-uric acid uptake, 5 min, 37 degrees; read-out: URAT1 IC50 Activity level
Sequence (Q96S37 whole entry): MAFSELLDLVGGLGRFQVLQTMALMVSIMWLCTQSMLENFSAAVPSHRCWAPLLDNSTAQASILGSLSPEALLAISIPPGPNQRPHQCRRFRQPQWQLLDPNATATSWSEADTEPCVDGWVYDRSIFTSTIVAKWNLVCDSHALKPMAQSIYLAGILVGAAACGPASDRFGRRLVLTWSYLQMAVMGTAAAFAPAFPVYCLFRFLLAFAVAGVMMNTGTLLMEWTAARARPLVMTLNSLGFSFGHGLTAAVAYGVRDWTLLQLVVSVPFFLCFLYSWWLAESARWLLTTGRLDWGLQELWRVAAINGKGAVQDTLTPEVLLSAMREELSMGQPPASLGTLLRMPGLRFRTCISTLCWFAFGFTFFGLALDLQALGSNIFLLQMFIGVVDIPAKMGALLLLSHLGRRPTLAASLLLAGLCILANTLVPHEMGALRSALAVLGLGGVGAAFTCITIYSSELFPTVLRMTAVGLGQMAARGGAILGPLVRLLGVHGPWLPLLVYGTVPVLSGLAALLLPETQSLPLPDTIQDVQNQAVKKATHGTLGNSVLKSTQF

Below, 2 molecules whose answers are already recorded.
Prompt: // query IC50 value for entry "N#Cc1ccc(-c2cnccc2Sc2ccccc2C(=O)O)c2ccccc12"
Completion: 0.1 to 1 µM

Prompt: Please do the same for "CC(C)(CCC(=O)O)Sc1ccncc1-c1ccc(C#N)c2ccccc12" as well.
Completion: < 0.1 µM

Now, please, on to the next molecule.
Prompt: // query IC50 value for entry "N#Cc1ccc(-c2cnccc2S[C@H]2C[C@H](C(=O)O)C2)c2ccccc12"
Completion: 0.1 to 1 µM

Numbers sourced from patent US9856239B1.
